test: LD50 (toxicity testing); settings: listed among in vitro toxicity test results; read-out: LD50
Measure name: LD50 (mg/kg)

>>> df
                                   molecule  measure_name  units_symbol  value_reported
0  Nc1ccc(/C=C/c2cc(N)cc(N)c2)cc1 [compound 1, (E)-5-(4-aminostyryl)benzene-1,3-diamine]          LD50         mg/kg             301
1  Nc1ccc(Oc2ccc(CCc3cc(Oc4ccc(N)cc4)cc(Oc4ccc(N)cc4)c3)cc2)cc1 [compound 3]          LD50         mg/kg             568
2  Nc1ccc(CCc2cc(N)cc(N)c2)cc1 [compound 2]          LD50         mg/kg             820

----------
experiment: Mutagenicity (Ames test); format: cell-based
Measure name: Mutagenicity (Ames test)

In [3]: df
Out[3]:
                                   molecule  value_reported
0  Nc1ccc(Cc2ccc(N)cc2)cc1 [MDA, Methylene dianiline, reference compound]       Mutagenic
1  Nc1ccc(CCc2cc(N)cc(N)c2)cc1 [compound 2]       Mutagenic
2  Nc1ccc(/C=C/c2cc(N)cc(N)c2)cc1 [compound 1, (E)-5-(4-aminostyryl)benzene-1,3-diamine]       Mutagenic

----------
Each record here notes measured Aquatic Toxicity.
assay: Aquatic toxicity
Measure name: Aquatic Toxicity (mg/L)

>>> df
                                   compound      measure_name  units_symbol  lt_gt_eq  value_reported
0  Nc1ccc(Cc2ccc(N)cc2)cc1 [MDA, Methylene dianiline, reference compound]  Aquatic Toxicity          mg/L         =           14.30
1  Nc1ccc(/C=C/c2cc(N)cc(N)c2)cc1 [compound 1, (E)-5-(4-aminostyryl)benzene-1,3-diamine]  Aquatic Toxicity          mg/L         =            1153
2               Nc1ccc(CCc2cc(N)cc(N)c2)cc1  Aquatic Toxicity          mg/L         =            52.7
3  Nc1ccc(Oc2ccc(CCc3cc(Oc4ccc(N)cc4)cc(Oc4ccc(N)cc4)c3)cc2)cc1  Aquatic Toxicity          mg/L         >            2000

Origin of measurements: patent US11192967B1
